Below, each entry is listed alongside its reported activity change, negative = inhibition.
Assay: NFAT Signaling Pathway (AID 444);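 also: carbachol stimulus at about its EC50 of 1 µM final; % is scaled to controls: 0 for no effect and ±100 for the full control effect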
Settings: Jurkat NFAT-bla M1, carbachol, beta-lactamase ratio, 5 h; at 7.69 µM (top of the series) unless noted
Results filed as inconclusive are left out.
The figure you give is taken to be in %; do not add the unit.

Consider the reported activity change, negative = inhibition for these compounds:
[[record]]
item_smiles = "CCNc1ncc2nc(-c3cc(F)cc(F)c3)c(=O)n(C[C@H]3CCCO3)c2n1"
endpoint_value = 8.04

[[record]]
item_smiles = "COCCNc1nc(-c2ccccc2CN(C)C)nc2ccccc12"
endpoint_value = -0.773

[[record]]
item_smiles = "COCC(=O)N1CCC2(CC1)CN(c1ccccn1)C2"
endpoint_value = 1.7

[[record]]
item_smiles = "Cc1cnc(CNc2ncncc2-c2ccc(C(=O)N(C)C)cc2)cn1"
endpoint_value = 2.85

[[record]]
item_smiles = "COc1ccc(NC(=O)N2CC3(CCN(S(C)(=O)=O)CC3)C2)cc1"
endpoint_value = 24.5


Please find the next compound below.
Fill in activity change, negative = inhibition for record "c1cncc(-c2nc(N3CCNCC3)c3ccccc3n2)c1" 7.65

These measurements were taken from PubChem BioAssay (NCATS).
